Cited source for all entries: PubChem BioAssay (NCI)

In this section, each of the molecules is paired with its reported TGI.
# Test system: 786-0 renal
# ASSAY_SUMMARY: NCI tumour cell line growth inhibition, 48 h
All answers are understood in µM, so give the number only.

{"MOLECULE": "CC(=O)O[C@H]1[C@@H]2OC(=O)C(CSc3ccccc3)[C@@H]2C[C@H]2O[C@]2(C)CC/C=C(\\C)CCC[C@@H]1C (stereo partly specified)", "TGI / µM": 8.29}

Task item: Please give the measured TGI for this molecule: "O=c1cc(N=Nc2ccc(Cl)c(Cl)c2)[nH]c(=O)[nH]1"
Reply: 2.86

Task item: Please give the measured TGI for this molecule: "CCN(CCCl)c1cc(CN(C)C)cc(NC(=O)C23CCC(C(=O)Nc4cc(CN(C)C)cc(N(CC)CCCl)c4)(CC2)CC3)c1"
Reply: 1

Task item: Please give the measured TGI for this molecule: "CC1(N)CCN(c2cnc(-c3cccc(Cl)c3Cl)c(N)n2)CC1"
Reply: 22

Task item: Please give the measured TGI for this molecule: "CC1(C)NCCC[C@]2(C)[C@H]3CC[C@@H]4[C@H]5[C@H](C(=O)/C=C/c6ccccn6)CC[C@]5(CO)CC[C@@]4(C)[C@]3(C)CC[C@@H]12"
Reply: 6.26

Task item: Please give the measured TGI for this molecule: COC(=O)C(COC(=O)/C=C/c1ccc(OC(C)=O)c(OC(C)=O)c1)NC(=O)/C=C/c1ccc(OC(C)=O)c(OC(C)=O)c1 (stereo unspecified)
Reply: 47.2

----------
# Tested on: NCI-H226 lung
# ASSAY_SUMMARY: NCI tumour cell line growth inhibition, 48 h
In this section, each of the compounds is paired with its reported GI50.

Worked examples follow.
{"COMPOUND": "Cc1cc2c(C(N)=O)c(N)n(-c3c(C)ccc(O)c3C)c2nc1C", "GI50": "0.569 µM"}
{"COMPOUND": "Clc1ccccc1CNc1c2ccccc2nc2ccccc12", "GI50": "2.22 µM"}

Turning now to a further compound:
Task item: Please give the measured GI50 for this compound: "Fc1cccc(-n2ccc(-c3ccccc3)nc2=S)c1"
Reply: 18.1 µM

----------
# Tested on: UACC-62 melanoma
# ASSAY_SUMMARY: NCI tumour cell line growth inhibition, 48 h; in the data active means GI50 below about 0.43 µM; inactive means the rest
Bench note: report the call from active, inactive

Past entries and their recorded results:
{"COMPOUND": "CCN(CC)C(=S)SCN1C(=O)c2ccccc2S1(=O)=O", "QUALITATIVE_LABEL": "inactive"}
{"COMPOUND": "NS(=O)(=O)c1ccc(N(/C=C/C(=O)C(F)(F)F)Cc2ccc(Cl)cc2)cc1", "QUALITATIVE_LABEL": "inactive"}
{"COMPOUND": "OCCNc1nc(Nc2ccc(Cl)c(Cl)c2)nc2ccccc12", "QUALITATIVE_LABEL": "inactive"}
{"COMPOUND": "Oc1ccc(C2c3ccccc3Oc3ccccc32)c2cccnc12", "QUALITATIVE_LABEL": "inactive"}
{"COMPOUND": "CC([C@H]1CCC2C3CCC4C[C@@H](N)CC[C@]4(C)C3CC[C@@]21C)N(C)C (stereo not given in full)", "QUALITATIVE_LABEL": "inactive"}

Task item: Outcome? "O=C(N/N=C/c1ccc(O)cc1O)c1cccc(Nc2ccnc(C(F)(F)F)c2)c1"
Reply: active

Task item: Outcome? "Clc1ccccc1CNc1c2ccccc2nc2ccccc12"
Reply: inactive

Task item: Outcome? COC(=O)C12OCC34C(CC5C(C)C6=CC(=O)OC6=CC5(C)C3C(O)C1O)OC(=O)C(O)C24 (stereo not given)
Reply: active

Task item: Outcome? "CN(CC(=O)Nc1nc2ccccc2[nH]1)S(=O)(=O)c1ccc(Cl)cc1"
Reply: inactive

Task item: Outcome? "O=C1c2ccccc2-c2c1c1c(O)cccc1n2Cc1ccccn1"
Reply: inactive
